# experimental_target: Serine/threonine-protein kinase mTOR (Homo sapiens) (UniProt P42345)
# condition_description: at 10 µM
assay_metric: residual activity (%)
Numbers only here, please. The scale is %.

// query # get_value(readout='residual activity', item= O=[N+]([O-])/C=C/c1ccc2c(c1)OCO2 )
// result 77

// query And COc1ccc2c(c[n+](C)c3c4cc5c(cc4ccc23)OCO5)c1OC ?
// result 89

// query And COC(=O)[C@@]1(O)C[C@H]2O[C@]1(C)n1c3ccccc3c3c4c(c5c6ccccc6n2c5c31)C(=O)NC4 ?
// result 79

// query And N/C(=N\[N+](=O)[O-])N/N=C\c1ccc(-c2cccc([N+](=O)[O-])c2)o1 ?
// result 88

// query And COc1ccc2c(c1)/C(=C/c1cnc[nH]1)C(=O)N2 ?
// result 71

// query And CCc1nc(-c2ccc(OC)cc2)[nH]c1-c1ccncc1 ?
// result 73
